Biological target: T1, O16
T1 chain: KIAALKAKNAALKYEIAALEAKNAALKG
Test: two-hybrid library CC0;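 also: natural log of median RNA to DNA barcode read ratio; higher means stronger binding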
Settings: mean of both orientations
REPORTED METRIC: interaction score
Could you keep your reply to the number by itself?

Would you mind telling me what interaction score value was observed for KNAALKAENAALEYEIAALEAEIAALEG [O1] ? -2.65

Would you mind telling me what interaction score value was observed for KNAALKAKIAALKYKNAALKAEIAALEG [O13] ? -2.87

Would you mind telling me what interaction score value was observed for KNAALKAENAALEYKIAALKAKIAALKG [O10] ? -2.56

Would you mind telling me what interaction score value was observed for EIAALEAKIAALKYKNAALKAKNAALKG [O12] ? -2.78

Would you mind telling me what interaction score value was observed for KIAALKAEIAALEYENAALEAENAALEG [O11] ? -2.66

Would you mind telling me what interaction score value was observed for EIAALEAENAALEYKIAALKAENAALEG [O15] ? 1.2

Would you mind telling me what interaction score value was observed for ENAALEAEIAALEYENAALEAKIAALKG [O14] ? 0.961

Would you mind telling me what interaction score value was observed for KIAALKAKNAALKYEIAALEAKNAALKG [O16] ? -2.76
